B1: SPATS1 (parent)
chain: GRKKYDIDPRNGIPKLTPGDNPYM

Variants of: B1
Test: protein stability index of a GFP-peptide fusion (GPS, HEK-293T) (PSI 1-6); higher = more stable;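 also: lentivirally expressed fusions sorted by FACS into six bins by GFP to DsRed ratio, PSI derived from sequencing read proportions per bin multiplied by bin number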
Settings: c terminus: a fixed tail appended
Recorded protein stability index by entry

[
  {
    "mutant_designation": "R2V",
    "protein stability index": 3.73
  },
  {
    "mutant_designation": "G12L",
    "protein stability index": 3.09
  },
  {
    "mutant_designation": "D6K",
    "protein stability index": 3.33
  },
  {
    "mutant_designation": "K3G",
    "protein stability index": 3.53
  },
  {
    "mutant_designation": "T17V",
    "protein stability index": 3.2
  },
  {
    "mutant_designation": "P22I",
    "protein stability index": 3.64
  },
  {
    "mutant_designation": "R2E",
    "protein stability index": 4.15
  },
  {
    "mutant_designation": "K4G",
    "protein stability index": 3.71
  },
  {
    "mutant_designation": "D6L",
    "protein stability index": 2.84
  },
  {
    "mutant_designation": "P22D",
    "protein stability index": 3.91
  },
  {
    "mutant_designation": "Y23D",
    "protein stability index": 4.84
  },
  {
    "mutant_designation": "G1R",
    "protein stability index": 3.93
  },
  {
    "mutant_designation": "R10N",
    "protein stability index": 3.23
  },
  {
    "mutant_designation": "K3N",
    "protein stability index": 3.32
  },
  {
    "mutant_designation": "T17I",
    "protein stability index": 3.19
  },
  {
    "mutant_designation": "G1E",
    "protein stability index": 3.96
  },
  {
    "mutant_designation": "N21F",
    "protein stability index": 2.78
  },
  {
    "mutant_designation": "P14G",
    "protein stability index": 3.38
  },
  {
    "mutant_designation": "K15G",
    "protein stability index": 2.81
  },
  {
    "mutant_designation": "D6A",
    "protein stability index": 3.26
  },
  {
    "mutant_designation": "K3C",
    "protein stability index": 2.29
  },
  {
    "mutant_designation": "I13R",
    "protein stability index": 3.58
  },
  {
    "mutant_designation": "D20N",
    "protein stability index": 3.12
  },
  {
    "mutant_designation": "D8Q",
    "protein stability index": 3.83
  },
  {
    "mutant_designation": "G19I",
    "protein stability index": 3.28
  },
  {
    "mutant_designation": "R2P",
    "protein stability index": 3.73
  },
  {
    "mutant_designation": "N21E",
    "protein stability index": 4.6
  },
  {
    "mutant_designation": "D8W",
    "protein stability index": 2.68
  },
  {
    "mutant_designation": "K15D",
    "protein stability index": 3.88
  },
  {
    "mutant_designation": "T17C",
    "protein stability index": 3.13
  },
  {
    "mutant_designation": "Y23R",
    "protein stability index": 4.34
  },
  {
    "mutant_designation": "K3F",
    "protein stability index": 2.83
  },
  {
    "mutant_designation": "P22K",
    "protein stability index": 3.89
  },
  {
    "mutant_designation": "P22L",
    "protein stability index": 3.31
  }
]
